From: ChEMBL document CHEMBL4382192

- protocol.description: Drug uptake in mouse lung at 10 mg/kg, po after 8 hrs
- Format: ADME, organism-based
- reported.conditions: read-out: Drug uptake
reported.property: concentration at 8 h (nM)
Numbers only, in nM.

Challenge: Give the measured concentration at 8 h for "C=CC(=O)Nc1cc(Nc2ncc(Cl)c(Nc3ccccc3S(=O)(=O)C(C)C)n2)c(OC)cc1N(C)CCN(C)C"
Response given: 740

====

- protocol.description: Metabolic stability in mouse liver microsomes assessed as parent compound remaining at 1 uM after 30 mins in presence of NADPH by LC/MS/MS analysis
- Format: ADME, Microsome
- reported.conditions: read-out: Stability
Simple rule here: remaining at 0.5 h, 1 µM less than 20% is yes, otherwise no.

Challenge: # check: remaining at 0.5 h, 1 µM < 20% for "C=CC(=O)Nc1cc(Nc2ncc(Cl)c(Nc3ccccc3S(=O)(=O)N(C)C)n2)c(OC)cc1N(C)CCN(C)C"
Response given: no

Challenge: Answer whether the compound "C=CC(=O)Nc1cc(Nc2nccc(Nc3ccccc3P(C)(C)=O)n2)c(OC)cc1N(C)CCN(C)C" has remaining at 0.5 h, 1 µM strictly less than 20%
Response given: no

Challenge: Quick check: does "C=CC(=O)Nc1cc(Nc2ncc(Cl)c(Nc3ccccc3S(=O)(=O)C(C)C)n2)c(OC)cc1N(C)CCN(C)C" have remaining at 0.5 h, 1 µM under 20%?
Response given: yes

Challenge: Given the entry "C=CC(=O)Nc1cc(Nc2ncc(I)c(Nc3ccccc3S(=O)(=O)C(C)C)n2)c(OC)cc1N(C)CCN(C)C" , would its reported remaining at 0.5 h, 1 µM be below 20%?
Response given: yes

Challenge: Regarding "C=CC(=O)Nc1cc(Nc2nccc(Nc3ccccc3S(=O)(=O)C(C)C)n2)c(OC)cc1N(C)CCN(C)C" , kindly confirm whether its remaining at 0.5 h, 1 µM is beneath 20%.
Response given: yes

====

- protocol.description: Metabolic stability in rat liver microsomes assessed as parent compound remaining at 1 uM after 30 mins in presence of NADPH by LC/MS/MS analysis
- Type: ADME, Microsome
- reported.conditions: read-out: Stability
Hi there, I'd appreciate the recorded remaining at 0.5 h, 1 µM for every entry that follows.
Answers are plain numbers, in %.

# annotated cases, reported remaining at 0.5 h, 1 µM shown
smiles.structure	remaining at 0.5 h, 1 µM [%]
C=CC(=O)Nc1cc(Nc2nccc(Nc3ccccc3P(C)(C)=O)n2)c(OC)cc1N(C)CCN(C)C	78
C=CC(=O)Nc1cc(Nc2nccc(Nc3ccccc3S(=O)(=O)N(C)C)n2)c(OC)cc1N(C)CCN(C)C	6
C=CC(=O)Nc1cc(Nc2ncc(F)c(Nc3ccccc3S(=O)(=O)C(C)C)n2)c(OC)cc1N(C)CCN(C)C	11
C=CC(=O)Nc1cc(Nc2ncc(I)c(Nc3ccccc3S(=O)(=O)C(C)C)n2)c(OC)cc1N(C)CCN(C)C	14

Report remaining at 0.5 h, 1 µM for every entry below.
1. C=CC(=O)Nc1cc(Nc2ncc(I)c(Nc3ccccc3S(=O)(=O)N(C)C)n2)c(OC)cc1N(C)CCN(C)C
2. C=CC(=O)Nc1cc(Nc2ncc(F)c(Nc3ccccc3P(C)(C)=O)n2)c(OC)cc1N(C)CCN(C)C

Response given:
1: 12; 2: 87

====

- target.of.assay: STE20-like serine/threonine-protein kinase (Homo sapiens)
- Sequence (Q9H2G2 whole entry): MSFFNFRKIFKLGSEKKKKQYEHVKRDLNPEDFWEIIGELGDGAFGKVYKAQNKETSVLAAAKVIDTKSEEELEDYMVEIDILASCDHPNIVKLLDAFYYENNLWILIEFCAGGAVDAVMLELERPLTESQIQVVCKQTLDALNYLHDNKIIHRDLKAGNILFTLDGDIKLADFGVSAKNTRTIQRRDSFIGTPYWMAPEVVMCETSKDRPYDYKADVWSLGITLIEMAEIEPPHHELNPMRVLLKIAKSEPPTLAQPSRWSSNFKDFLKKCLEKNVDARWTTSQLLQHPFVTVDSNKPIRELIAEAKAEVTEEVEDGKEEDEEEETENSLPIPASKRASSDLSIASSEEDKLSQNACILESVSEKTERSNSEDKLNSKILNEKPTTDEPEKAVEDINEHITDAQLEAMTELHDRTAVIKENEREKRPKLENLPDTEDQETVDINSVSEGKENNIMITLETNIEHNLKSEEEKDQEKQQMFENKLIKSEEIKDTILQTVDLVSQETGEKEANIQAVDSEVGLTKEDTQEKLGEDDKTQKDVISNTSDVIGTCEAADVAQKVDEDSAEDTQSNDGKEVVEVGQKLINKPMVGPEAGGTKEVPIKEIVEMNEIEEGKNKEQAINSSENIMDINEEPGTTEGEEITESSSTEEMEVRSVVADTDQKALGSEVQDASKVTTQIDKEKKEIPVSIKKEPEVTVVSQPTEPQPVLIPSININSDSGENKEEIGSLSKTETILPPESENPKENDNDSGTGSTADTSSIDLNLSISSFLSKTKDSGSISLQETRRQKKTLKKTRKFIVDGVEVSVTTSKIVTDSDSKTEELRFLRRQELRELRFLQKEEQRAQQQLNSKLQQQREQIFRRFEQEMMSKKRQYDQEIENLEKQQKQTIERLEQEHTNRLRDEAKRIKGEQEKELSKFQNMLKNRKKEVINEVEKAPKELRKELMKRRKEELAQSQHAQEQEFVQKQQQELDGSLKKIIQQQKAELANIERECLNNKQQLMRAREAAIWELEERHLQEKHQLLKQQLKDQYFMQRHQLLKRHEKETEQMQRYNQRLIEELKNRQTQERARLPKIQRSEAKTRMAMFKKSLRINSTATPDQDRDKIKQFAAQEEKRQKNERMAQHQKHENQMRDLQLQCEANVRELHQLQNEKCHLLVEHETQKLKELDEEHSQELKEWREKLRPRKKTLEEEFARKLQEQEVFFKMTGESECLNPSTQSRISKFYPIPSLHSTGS
- protocol.description: Inhibition of recombinant full length GST-tagged human SLK expressed in baculovirus expression system by LanthaScreen assay
reported.property: pIC50
Give bare numbers, as −log10 of the molar value.

Challenge: Write down pIC50 measured for item "C=CC(=O)Nc1cc(Nc2ncc(Cl)c(Nc3ccccc3S(=O)(=O)C(C)C)n2)c(OC)cc1N(C)CCN(C)C"
Response given: 7.24

====

- protocol.description: Metabolic stability in human liver microsomes assessed as parent compound remaining at 1 uM after 30 mins in presence of NADPH by LC/MS/MS analysis
- Type: ADME, Microsome
- reported.conditions: read-out: Stability
I'd be grateful if you could share measured remaining at 0.5 h, 1 µM for these entries.
Please give the number followed by its unit.

smiles.structure	remaining at 0.5 h, 1 µM
C=CC(=O)Nc1cc(Nc2ncc(Cl)c(Nc3ccccc3S(=O)(=O)N(C)C)n2)c(OC)cc1N(C)CCN(C)C	11%

For each listed entry, give its remaining at 0.5 h, 1 µM.
1. C=CC(=O)Nc1cc(Nc2ncc(I)c(Nc3ccccc3S(=O)(=O)C(C)C)n2)c(OC)cc1N(C)CCN(C)C
2. C=CC(=O)Nc1cc(Nc2ncc(Cl)c(Nc3ccccc3P(C)(C)=O)n2)c(OC)cc1N(C)CCN(C)C
3. C=CC(=O)Nc1cc(Nc2nccc(Nc3ccccc3S(=O)(=O)C(C)C)n2)c(OC)cc1N(C)CCN(C)C

Response given:
["14%", "61%", "5%"]

====

- protocol.description: Drug uptake in mouse plasma at 10 mg/kg, po after 8 hrs
- Format: ADME, organism-based
reported.property: concentration at 8 h (nM)
Numbers only, in nM.

Challenge: Please indicate concentration at 8 h recorded for "C=CC(=O)Nc1cc(Nc2ncc(Cl)c(Nc3ccccc3S(=O)(=O)C(C)C)n2)c(OC)cc1N(C)CCN(C)C"
Response given: 10

====

- protocol.description: Tmax in mouse at 10 mg/kg, po
- Format: ADME, organism-based
- reported.conditions: in vivo
reported.property: Tmax (h)
One number for each entry, in h.

Challenge: Please list Tmax recorded for the compound "C=CC(=O)Nc1cc(Nc2ncc(Cl)c(Nc3ccccc3S(=O)(=O)C(C)C)n2)c(OC)cc1N(C)CCN(C)C"
Response given: 1.17

====

Please respond with reported pIC50 for every item in the list.
- target.of.assay: UniProt:Q9UM73
- Sequence (Q9UM73 whole entry): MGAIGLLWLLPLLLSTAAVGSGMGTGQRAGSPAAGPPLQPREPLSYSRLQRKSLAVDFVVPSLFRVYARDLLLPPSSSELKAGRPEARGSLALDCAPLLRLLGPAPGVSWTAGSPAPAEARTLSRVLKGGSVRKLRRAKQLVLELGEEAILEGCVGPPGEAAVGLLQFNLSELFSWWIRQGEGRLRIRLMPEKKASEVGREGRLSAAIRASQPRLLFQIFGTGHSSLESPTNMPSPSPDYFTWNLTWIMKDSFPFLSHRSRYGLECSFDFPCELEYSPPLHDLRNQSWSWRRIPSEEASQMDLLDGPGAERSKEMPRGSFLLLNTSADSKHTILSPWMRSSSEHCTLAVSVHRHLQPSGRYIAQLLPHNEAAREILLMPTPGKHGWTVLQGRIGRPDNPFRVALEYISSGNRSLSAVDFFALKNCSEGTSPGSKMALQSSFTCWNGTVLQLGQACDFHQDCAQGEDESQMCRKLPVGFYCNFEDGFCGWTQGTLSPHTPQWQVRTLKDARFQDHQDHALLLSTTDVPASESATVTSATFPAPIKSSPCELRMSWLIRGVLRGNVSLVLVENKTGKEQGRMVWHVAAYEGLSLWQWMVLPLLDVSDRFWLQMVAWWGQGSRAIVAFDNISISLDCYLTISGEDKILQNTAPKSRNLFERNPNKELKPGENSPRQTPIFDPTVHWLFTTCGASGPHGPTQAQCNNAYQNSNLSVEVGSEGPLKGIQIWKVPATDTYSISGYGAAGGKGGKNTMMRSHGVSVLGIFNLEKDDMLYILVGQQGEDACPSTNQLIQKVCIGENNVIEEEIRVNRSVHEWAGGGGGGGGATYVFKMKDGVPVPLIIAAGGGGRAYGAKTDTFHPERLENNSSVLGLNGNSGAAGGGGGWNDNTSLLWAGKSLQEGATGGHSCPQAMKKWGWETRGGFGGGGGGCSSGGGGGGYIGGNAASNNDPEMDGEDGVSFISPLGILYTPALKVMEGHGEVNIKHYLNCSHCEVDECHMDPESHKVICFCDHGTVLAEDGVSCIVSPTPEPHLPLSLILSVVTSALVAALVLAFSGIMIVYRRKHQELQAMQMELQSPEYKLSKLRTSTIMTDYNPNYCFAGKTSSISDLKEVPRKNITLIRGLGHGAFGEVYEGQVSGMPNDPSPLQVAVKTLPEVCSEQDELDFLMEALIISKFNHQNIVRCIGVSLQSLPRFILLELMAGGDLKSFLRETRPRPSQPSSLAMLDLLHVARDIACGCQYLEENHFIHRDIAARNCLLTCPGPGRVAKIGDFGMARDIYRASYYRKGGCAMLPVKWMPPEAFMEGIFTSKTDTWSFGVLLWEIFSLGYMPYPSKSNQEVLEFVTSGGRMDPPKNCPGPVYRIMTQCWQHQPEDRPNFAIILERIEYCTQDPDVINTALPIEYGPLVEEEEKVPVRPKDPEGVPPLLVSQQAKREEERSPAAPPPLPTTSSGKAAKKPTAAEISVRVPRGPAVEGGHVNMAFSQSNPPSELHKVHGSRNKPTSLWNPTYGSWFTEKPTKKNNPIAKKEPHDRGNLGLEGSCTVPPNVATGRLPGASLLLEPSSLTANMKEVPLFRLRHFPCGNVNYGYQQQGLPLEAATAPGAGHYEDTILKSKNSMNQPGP
Numbers only, as −log10 of the molar value.

smiles.structure	readout.number
C=CC(=O)Nc1cc(Nc2nccc(-c3cn(C)c4ccccc34)n2)c(OC)cc1N(C)CCN(C)C	6.75

Field: next compound
Challenge: Look up and state reported pIC50 for "C=CC(=O)Nc1cccc(Oc2nc(Nc3ccc(N4CCN(C)CC4)cc3OC)ncc2Cl)c1"
Response given: 6.00

====

- protocol.description: Metabolic stability in dog liver microsomes assessed as parent compound remaining at 1 uM after 30 mins in presence of NADPH by LC/MS/MS analysis
- Format: ADME, Canis lupus familiaris, Microsome
- reported.conditions: read-out: Stability
reported.property: remaining at 0.5 h, 1 µM (%)
Numbers only, in %.

Some compounds with known remaining at 0.5 h, 1 µM results, for comparison:
smiles.structure	display.unit	remaining at 0.5 h, 1 µM
C=CC(=O)Nc1cc(Nc2ncc(I)c(Nc3ccccc3S(=O)(=O)N(C)C)n2)c(OC)cc1N(C)CCN(C)C	%	35
C=CC(=O)Nc1cc(Nc2ncc(Cl)c(Nc3ccccc3S(=O)(=O)N(C)C)n2)c(OC)cc1N(C)CCN(C)C	%	31

Would you mind listing remaining at 0.5 h, 1 µM for each of the following compounds?
1. C=CC(=O)Nc1cc(Nc2ncc(Cl)c(Nc3ccccc3P(C)(C)=O)n2)c(OC)cc1N(C)CCN(C)C
2. C=CC(=O)Nc1cc(Nc2ncc(Cl)c(Nc3ccccc3S(=O)(=O)C(C)C)n2)c(OC)cc1N(C)CCN(C)C
3. C=CC(=O)Nc1cc(Nc2nccc(Nc3ccccc3S(=O)(=O)C(C)C)n2)c(OC)cc1N(C)CCN(C)C
4. C=CC(=O)Nc1cc(Nc2nccc(Nc3ccccc3S(=O)(=O)N(C)C)n2)c(OC)cc1N(C)CCN(C)C
5. C=CC(=O)Nc1cc(Nc2ncc(F)c(Nc3ccccc3S(=O)(=O)N(C)C)n2)c(OC)cc1N(C)CCN(C)C
6. C=CC(=O)Nc1cc(Nc2ncc(F)c(Nc3ccccc3S(=O)(=O)C(C)C)n2)c(OC)cc1N(C)CCN(C)C
7. C=CC(=O)Nc1cc(Nc2ncc(I)c(Nc3ccccc3S(=O)(=O)C(C)C)n2)c(OC)cc1N(C)CCN(C)C

Response given:
1. 77
2. 17
3. 48
4. 50
5. 33
6. 27
7. 19

For every record below, what is its remaining at 0.5 h, 1 µM?
1. C=CC(=O)Nc1cc(Nc2nccc(Nc3ccccc3P(C)(C)=O)n2)c(OC)cc1N(C)CCN(C)C
2. C=CC(=O)Nc1cc(Nc2ncc(I)c(Nc3ccccc3P(C)(C)=O)n2)c(OC)cc1N(C)CCN(C)C
3. C=CC(=O)Nc1cc(Nc2ncc(F)c(Nc3ccccc3P(C)(C)=O)n2)c(OC)cc1N(C)CCN(C)C

Response given:
[73, 93, 87]

====

- protocol.description: Oral bioavailability in mouse at 10 mg/kg
- Format: ADME, organism-based
- reported.conditions: in vivo
reported.property: bioavailability

Challenge: Identify measured bioavailability associated with "C=CC(=O)Nc1cc(Nc2ncc(Cl)c(Nc3ccccc3S(=O)(=O)C(C)C)n2)c(OC)cc1N(C)CCN(C)C"
Response given: 24%

====

- protocol.description: Metabolic stability in mouse liver microsomes assessed as parent compound remaining at 1 uM after 30 mins in presence of NADPH by LC/MS/MS analysis
- Format: ADME, Microsome
- reported.conditions: read-out: Stability
Give remaining at 0.5 h, 1 µM for every item shown.

List the reported remaining at 0.5 h, 1 µM of each compound below.
1. C=CC(=O)Nc1cc(Nc2ncc(F)c(Nc3ccccc3S(=O)(=O)C(C)C)n2)c(OC)cc1N(C)CCN(C)C
2. C=CC(=O)Nc1cc(Nc2ncc(I)c(Nc3ccccc3S(=O)(=O)N(C)C)n2)c(OC)cc1N(C)CCN(C)C
3. C=CC(=O)Nc1cc(Nc2nccc(Nc3ccccc3S(=O)(=O)N(C)C)n2)c(OC)cc1N(C)CCN(C)C
4. C=CC(=O)Nc1cc(Nc2ncc(I)c(Nc3ccccc3P(C)(C)=O)n2)c(OC)cc1N(C)CCN(C)C

Response given:
1: 15%; 2: 12%; 3: 5%; 4: 57%

Count: 3. Required value per item: remaining at 0.5 h, 1 µM.
1. C=CC(=O)Nc1cc(Nc2ncc(Cl)c(Nc3ccccc3P(C)(C)=O)n2)c(OC)cc1N(C)CCN(C)C
2. C=CC(=O)Nc1cc(Nc2ncc(F)c(Nc3ccccc3P(C)(C)=O)n2)c(OC)cc1N(C)CCN(C)C
3. C=CC(=O)Nc1cc(Nc2ncc(F)c(Nc3ccccc3S(=O)(=O)N(C)C)n2)c(OC)cc1N(C)CCN(C)C

Response given:
1. 66%
2. 80%
3. 10%
